assay: Antiproliferative activity against human WHCO1 cells after 48 hrs by MTT assay; assay type: functional, cell-based; conditions: WHCO1, 48 h
IC50 values by entry
Recorded metric: IC50 (µM)

{"columns": ["Compound", "Qualifier operator", "Measured number"],
 "data": [
  ["C=CCSSC=CC[S+]([O-])Cc1ccc(OC)cc1 (mixture of isomers)", "=", 7.4],
  ["CCC[S+]([O-])C/C=C\\SSC (configuration not stated)", "=", 26],
  ["C=CCSSC=CC[S+]([O-])Cc1ccccc1 (mixture of isomers)", "=", 8.9],
  ["C=CCSS/C=C/C[S+]([O-])CCCOCc1ccc(OC)cc1 (configuration not stated)", "=", 18],
  ["C=CCSS/C=C\\C[S+]([O-])CCCOCc1ccc(OC)cc1 (configuration not stated)", "=", 21],
  ["COc1ccc(CSSC=CC[S+]([O-])Cc2ccc(OC)cc2)cc1 (configuration not stated)", "=", 2.1],
  ["COc1ccc(CSC=CCSCc2ccc(OC)cc2)cc1", ">", 200],
  ["C=CCSSC=CC[S+]([O-])C(C)(C)C (mixture of isomers)", "=", 23],
  ["COc1ccc(CS/C=C/C[S+]([O-])Cc2ccc(OC)cc2)cc1 (configuration not stated)", ">", 200],
  ["C=CCSS/C=C/C[S+]([O-])CCCN1C(=O)c2ccccc2C1=O (configuration not stated)", "=", 68],
  ["COc1ccc(CSCC=CSSCc2ccc(OC)cc2)cc1", "=", 0.7],
  ["C=CCSS/C=C/C[S+]([O-])CC=C (configuration not stated)", "=", 39],
  ["COc1ccc(C[S+]([O-])CC=CSSCc2ccccc2)cc1 (mixture of isomers)", "=", 3.1],
  ["C=CCSS/C=C\\C[S+]([O-])CCC (configuration not stated)", "=", 23],
  ["C=CCSS/C=C\\C[S+]([O-])CCCO (configuration not stated)", "=", 38],
  ["C=CCSS/C=C\\C[S+]([O-])CC=C (configuration not stated) [(Z)-Ajoene]", "=", 25],
  ["C=CCSS/C=C/C[S+]([O-])CCCO (configuration not stated)", "=", 27],
  ["O=c1[nH]cc(F)c(=O)[nH]1", "=", 7.9],
  ["COc1ccc(C[S+]([O-])CC=CSSCc2ccc(F)cc2)cc1 (mixture of isomers)", "=", 16],
  ["COc1ccc(CSSCCC[S+]([O-])Cc2ccc(OC)cc2)cc1 (configuration not stated)", "=", 16],
  ["COc1ccc(CSCCCSSCc2ccc(OC)cc2)cc1", ">", 200],
  ["CCCSS/C=C\\C[S+]([O-])CCC (configuration not stated)", "=", 18],
  ["C=CCSS/C=C/C[S+]([O-])CCC (configuration not stated)", "=", 37],
  ["C=CCSS/C=C\\C[S+]([O-])CCCN1C(=O)c2ccccc2C1=O (configuration not stated)", "=", 33],
  ["COc1ccc(CS/C=C\\C[S+]([O-])Cc2ccc(OC)cc2)cc1 (configuration not stated)", ">", 200],
  ["CCCSS/C=C/C[S+]([O-])CCC (configuration not stated)", "=", 24],
  ["CCC[S+]([O-])C/C=C/SSC (configuration not stated)", "=", 28]
]}
